system: RARa homodimer (NR concentration 270 nM); assay: PBM binding z-score (relative to random genomic background probes); higher = stronger binding; sequences stand for … in GC…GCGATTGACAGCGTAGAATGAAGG
Binned PBM binding z-score; ranges: bottom end (below 0.5), midrange (0.5 to below 2), top end (2 or more)

SEQ TEXT: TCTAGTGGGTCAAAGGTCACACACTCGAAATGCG
CAT: top end
//
SEQ TEXT: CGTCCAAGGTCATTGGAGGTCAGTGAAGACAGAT
CAT: top end
//
SEQ TEXT: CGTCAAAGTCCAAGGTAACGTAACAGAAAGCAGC
CAT: bottom end
//
SEQ TEXT: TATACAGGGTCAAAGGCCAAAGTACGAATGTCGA
CAT: midrange
//
SEQ TEXT: ATATGTAGGTCAAGGGTCATTCAGGTTGGTTCGC
CAT: midrange
//
SEQ TEXT: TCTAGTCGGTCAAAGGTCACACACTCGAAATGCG
CAT: top end
//
SEQ TEXT: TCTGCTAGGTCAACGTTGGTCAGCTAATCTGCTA
CAT: bottom end
//
SEQ TEXT: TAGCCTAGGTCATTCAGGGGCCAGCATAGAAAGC
CAT: bottom end
//
SEQ TEXT: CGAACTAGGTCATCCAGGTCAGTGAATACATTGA
CAT: midrange
//
SEQ TEXT: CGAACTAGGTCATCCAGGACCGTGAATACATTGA
CAT: bottom end
//
SEQ TEXT: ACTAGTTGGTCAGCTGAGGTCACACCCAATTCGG
CAT: bottom end
//
SEQ TEXT: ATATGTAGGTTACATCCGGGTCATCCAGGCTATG
CAT: midrange
//
SEQ TEXT: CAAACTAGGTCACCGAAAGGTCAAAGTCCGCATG
CAT: top end
//
SEQ TEXT: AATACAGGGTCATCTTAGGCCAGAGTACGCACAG
CAT: midrange
//
SEQ TEXT: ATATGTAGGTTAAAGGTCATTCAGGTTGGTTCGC
CAT: top end
//
SEQ TEXT: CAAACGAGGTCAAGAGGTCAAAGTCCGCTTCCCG
CAT: top end
//
SEQ TEXT: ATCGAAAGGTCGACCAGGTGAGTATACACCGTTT
CAT: midrange
//
SEQ TEXT: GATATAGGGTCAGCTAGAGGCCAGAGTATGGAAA
CAT: midrange
//
SEQ TEXT: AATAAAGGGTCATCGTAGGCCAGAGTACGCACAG
CAT: top end
//
SEQ TEXT: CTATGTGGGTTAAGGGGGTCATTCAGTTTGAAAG
CAT: top end
//
SEQ TEXT: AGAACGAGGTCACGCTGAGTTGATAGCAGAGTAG
CAT: midrange
//
SEQ TEXT: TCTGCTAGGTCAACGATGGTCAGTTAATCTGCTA
CAT: bottom end
//
SEQ TEXT: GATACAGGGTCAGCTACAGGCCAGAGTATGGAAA
CAT: bottom end
//
SEQ TEXT: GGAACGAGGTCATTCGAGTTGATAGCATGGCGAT
CAT: bottom end
//
SEQ TEXT: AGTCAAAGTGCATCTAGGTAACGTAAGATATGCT
CAT: bottom end

###

Listed here: items and their measured PBM binding z-score.
system: PPARg homodimer (NR concentration 180 nM); test: PBM binding z-score (relative to random genomic background probes); higher = stronger binding; sequences stand for … in GC…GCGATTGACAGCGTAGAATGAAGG

SEQ TEXT: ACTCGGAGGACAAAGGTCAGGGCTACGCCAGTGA
PBM binding z-score: 4.95
--
SEQ TEXT: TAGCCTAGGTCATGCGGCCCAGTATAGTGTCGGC
PBM binding z-score: 0.605
--
SEQ TEXT: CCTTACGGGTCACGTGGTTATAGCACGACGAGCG
PBM binding z-score: 1.26
--
SEQ TEXT: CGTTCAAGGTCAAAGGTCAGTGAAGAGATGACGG
PBM binding z-score: 6.36
--
SEQ TEXT: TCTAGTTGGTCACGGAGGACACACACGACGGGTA
PBM binding z-score: 0.981
--
SEQ TEXT: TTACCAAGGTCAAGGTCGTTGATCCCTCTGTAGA
PBM binding z-score: 4.12
--
SEQ TEXT: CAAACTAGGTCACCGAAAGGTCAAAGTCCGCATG
PBM binding z-score: 9.63

###

Listed here: items and their measured PBM binding z-score.
system: PPARg:RXRa DBDmut IVT, anti-RXR (DBD mutation: RXRa K156A/R161A, NR concentration 270 nM, RXRa partner concentration 90 nM); experiment: PBM binding z-score (relative to random genomic background probes); higher = stronger binding; sequences stand for … in GC…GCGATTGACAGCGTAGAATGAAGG

SEQ TEXT: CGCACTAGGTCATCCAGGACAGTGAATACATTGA
PBM binding z-score: 7.71
--
SEQ TEXT: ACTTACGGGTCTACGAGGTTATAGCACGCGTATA
PBM binding z-score: -0.0713
--
SEQ TEXT: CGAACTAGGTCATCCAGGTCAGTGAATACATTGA
PBM binding z-score: 8.34
--
SEQ TEXT: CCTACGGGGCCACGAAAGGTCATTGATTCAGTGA
PBM binding z-score: 1.57
--
SEQ TEXT: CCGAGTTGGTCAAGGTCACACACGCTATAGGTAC
PBM binding z-score: 1.59
--
SEQ TEXT: ATCGAAAGGTCAAAGGTGAGTATACCCACCCGAA
PBM binding z-score: 4.23
--
SEQ TEXT: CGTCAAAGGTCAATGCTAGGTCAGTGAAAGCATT
PBM binding z-score: 4.79
--
SEQ TEXT: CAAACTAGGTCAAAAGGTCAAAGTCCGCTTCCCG
PBM binding z-score: 8.5
--
SEQ TEXT: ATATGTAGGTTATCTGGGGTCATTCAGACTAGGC
PBM binding z-score: 7.21
--
SEQ TEXT: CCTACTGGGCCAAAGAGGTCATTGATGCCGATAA
PBM binding z-score: 4.23
--
SEQ TEXT: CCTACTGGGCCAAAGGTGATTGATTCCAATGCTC
PBM binding z-score: 5.69
--
SEQ TEXT: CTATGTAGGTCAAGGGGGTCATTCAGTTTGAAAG
PBM binding z-score: 8.6
--
SEQ TEXT: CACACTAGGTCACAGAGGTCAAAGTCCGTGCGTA
PBM binding z-score: 7.79
--
SEQ TEXT: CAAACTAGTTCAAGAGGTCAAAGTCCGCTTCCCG
PBM binding z-score: 2.43
--
SEQ TEXT: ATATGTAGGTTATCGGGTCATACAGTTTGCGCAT
PBM binding z-score: 7.63
--
SEQ TEXT: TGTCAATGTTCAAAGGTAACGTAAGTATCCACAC
PBM binding z-score: -0.214
--
SEQ TEXT: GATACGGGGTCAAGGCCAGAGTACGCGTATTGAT
PBM binding z-score: 4.87
--
SEQ TEXT: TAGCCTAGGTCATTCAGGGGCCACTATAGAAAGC
PBM binding z-score: 2.08
--
SEQ TEXT: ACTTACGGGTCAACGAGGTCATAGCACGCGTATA
PBM binding z-score: 4.12
--
SEQ TEXT: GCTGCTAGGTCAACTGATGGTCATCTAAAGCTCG
PBM binding z-score: 5.18
--
SEQ TEXT: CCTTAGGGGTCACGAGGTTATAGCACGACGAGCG
PBM binding z-score: 5.82
--
SEQ TEXT: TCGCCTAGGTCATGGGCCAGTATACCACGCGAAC
PBM binding z-score: 1.88
--
SEQ TEXT: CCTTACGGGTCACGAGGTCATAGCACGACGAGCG
PBM binding z-score: 4.66
--
SEQ TEXT: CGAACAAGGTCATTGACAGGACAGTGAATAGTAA
PBM binding z-score: 4.08
--
SEQ TEXT: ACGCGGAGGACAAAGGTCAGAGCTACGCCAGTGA
PBM binding z-score: 0.442
--
SEQ TEXT: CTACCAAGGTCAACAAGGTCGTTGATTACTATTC
PBM binding z-score: 4.52
--
SEQ TEXT: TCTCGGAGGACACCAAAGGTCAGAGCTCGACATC
PBM binding z-score: 1.47
--
SEQ TEXT: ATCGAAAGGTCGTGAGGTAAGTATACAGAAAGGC
PBM binding z-score: 0.266
--
SEQ TEXT: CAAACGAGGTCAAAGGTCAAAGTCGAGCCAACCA
PBM binding z-score: 7.13
--
SEQ TEXT: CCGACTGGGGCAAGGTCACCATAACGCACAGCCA
PBM binding z-score: 3.03
--
SEQ TEXT: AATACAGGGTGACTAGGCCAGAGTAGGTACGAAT
PBM binding z-score: 2.23
--
SEQ TEXT: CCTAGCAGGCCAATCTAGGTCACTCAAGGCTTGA
PBM binding z-score: 5.08
--
SEQ TEXT: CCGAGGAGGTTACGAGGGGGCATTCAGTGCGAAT
PBM binding z-score: 1.54
--
SEQ TEXT: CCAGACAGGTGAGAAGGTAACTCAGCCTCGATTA
PBM binding z-score: 1
--
SEQ TEXT: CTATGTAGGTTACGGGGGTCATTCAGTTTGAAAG
PBM binding z-score: 7.41
--
SEQ TEXT: TGTCAAAGTTCAAAGGTCACGTAAGTATCCACAC
PBM binding z-score: 1.46
--
SEQ TEXT: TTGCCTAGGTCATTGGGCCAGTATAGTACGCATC
PBM binding z-score: 2.65
--
SEQ TEXT: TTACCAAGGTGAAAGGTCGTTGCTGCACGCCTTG
PBM binding z-score: 2.97
--
SEQ TEXT: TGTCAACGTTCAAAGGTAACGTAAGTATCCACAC
PBM binding z-score: -0.155
--
SEQ TEXT: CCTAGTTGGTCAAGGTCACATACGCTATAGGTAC
PBM binding z-score: 2.23
--
SEQ TEXT: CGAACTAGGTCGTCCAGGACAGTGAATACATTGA
PBM binding z-score: 5.71
